# SYSTEM: human plasma Kallikrein (Homo sapiens, UniProt P03952)
# Construct: purchased Stratech, UK
# Sequence (P03952 20-638): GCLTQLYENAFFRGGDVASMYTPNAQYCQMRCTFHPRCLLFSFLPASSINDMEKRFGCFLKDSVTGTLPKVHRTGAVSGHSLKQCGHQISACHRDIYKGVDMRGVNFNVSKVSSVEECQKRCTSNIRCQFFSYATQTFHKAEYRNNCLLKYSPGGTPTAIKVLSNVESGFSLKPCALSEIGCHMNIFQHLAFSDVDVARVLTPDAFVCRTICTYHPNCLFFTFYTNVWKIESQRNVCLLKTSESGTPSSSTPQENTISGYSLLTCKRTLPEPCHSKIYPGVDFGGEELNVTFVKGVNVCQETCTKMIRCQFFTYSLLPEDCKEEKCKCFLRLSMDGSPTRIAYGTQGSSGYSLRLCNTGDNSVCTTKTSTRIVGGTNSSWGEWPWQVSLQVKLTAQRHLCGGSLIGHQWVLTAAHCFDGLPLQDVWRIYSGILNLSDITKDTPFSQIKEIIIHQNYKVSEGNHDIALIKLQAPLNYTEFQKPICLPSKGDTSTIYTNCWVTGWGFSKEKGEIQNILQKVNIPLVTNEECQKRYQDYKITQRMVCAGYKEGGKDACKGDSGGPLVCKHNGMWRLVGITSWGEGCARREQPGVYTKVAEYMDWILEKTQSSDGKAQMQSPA
# METHOD SUMMARY: Functional enzyme inhibition assay with fluorogenic substrate Z-PheArg-AMC, human plasma Kallikrein
# Format: biochemical
# CONDITION DETAILS: Table 3c, D-Alanine scan in Loop2; read-out: Ki
# Protocol: Functional enzyme assays were conducted in 10 mM Tris HCl, 150 mM NaCl, 10 mM MgCl2, 1 mM CaCl2) and 1 mg/mL BSA (all Sigma UK) pH7.4 at 25° C. in solid black 96 well plates. […] Release of AMC was measured using a Pherastar FS (BMG Labtech), excitation 360 nm, emission 460 nm. The rate of the linear phase of the reaction, typically 5 to 45 minutes, was calculated in MARS data analysis software (BMG labtech). […]
Numbered stars: 1 amine (or outer) side, 2 acyl side, 3 side chain; on linkers, the order of the positions; unused ones are H or OH. Bridge positions count the residues as written; N and C are the ends. Square brackets hold non-standard residues; d marks the D form. Peptide text beside a SMILES is read from it. TBMB = c1c(C[*:1])cc(C[*:3])cc1C[*:2]
ASSAY ENDPOINT: Ki (nM)
Report only the number, with the unit nM understood.

Query :: # lookup: Ki of CC(=O)N[C@H]1CSCc2cc3cc(c2)CSC[C@H](NC(=O)[C@H](CCCNC(=N)N)NC(=O)[C@H](C)NC(=O)[C@@H]2CCCN2C(=O)[C@H](Cc2c[nH]c4ccccc24)NC(=O)[C@H](CO)NC1=O)C(=O)N[C@@H](CC(C)C)C(=O)N[C@@H](Cc1c[nH]cn1)C(=O)N[C@@H](CCC(N)=O)C(=O)N[C@H](C)C(=O)N[C@@H](CC(C)C)C(=O)N[C@H](C(N)=O)CSC3 [Ac-(06-34-18) D-Ala9] (Ac-CSWPARCLHQ[dA]LC-NH2; linker 1-7-13 via TBMB)
Result :: 0.87

Value source: patent US10118947B2
